molecules and their reported pKi
biological target: human central type cannabinoid receptor (hCB1) (Homo sapiens); construct: expressed in transfected cells; host or cells: CHO cells; assay: Binding assay (in vitro), [3H]Win55212-2 displacement, membrane fractions of human CB1-CHO; details: hCB1 expressed in CHO cells, [3H]Win55212-2 2 nM, 30° C. 90 minutes; read-out: Ki value Central type receptor (C)
Where a name gives a salt, the structure may show the parent alone.
Scale: negative log10 of molar concentration, which is what pKi denotes.

Consider the following illustrative entries.
{"columns": ["molecule", "pKi"],
 "data": [
  ["CCCCCOc1c(OC)ccc2cc(C(=O)NCCN3CCOCC3)c(=O)n(C)c12 [Example 3-38]", 6.03],
  ["CCCCCOc1c(OC)ccc2cc(C(=O)NCc3ccc(F)cc3)c(=O)n(C)c12 [Example 3-40]", 6.15],
  ["CCCCOc1c(OC)ccc2cc(CO)c(=O)[nH]c12 [Example 5-1]", 6.16],
  ["CCCCCOc1cc2cc(C(=O)OC)c(=O)n(C)c2cc1OC [Example 1-4]", 5.79],
  ["CCOc1c(OC)ccc2cc(C(=O)NCc3ccc4c(c3)OCO4)c(=O)[nH]c12 [Example 3-35]", 6.39],
  ["CCCCCOc1cc2cc(C(=O)NCc3ccc4c(c3)OCO4)c(=O)n(C)c2cc1OC [Example 3-45]", 6.42],
  ["CCCCOc1c(OC)ccc2cc(CNC(=O)Cc3ccc(O)cc3)c(=O)[nH]c12 [Example 8-2]", 6.14],
  ["CCCOc1c(OC)ccc2cc(C(=O)O)c(=O)[nH]c12 [Example 2-4]", 6.04],
  ["COc1ccc2cc(C(=O)NCCc3ccc(F)cc3)c(=O)[nH]c2c1OC [Example 3-31]", 6.80],
  ["CCCCOc1c(OC)ccc2cc(C(=O)NCCc3ccncc3)c(=O)[nH]c12 [Example 3-17, hydrochloride]", 6.70]
]}

Then this molecule:
Entry CCOc1c(OC)ccc2cc(CO)c(=O)[nH]c12 [Example 5-2] has what pKi?
6.91

* * *

target: human central type cannabinoid receptor (hCB1) (Homo sapiens, UniProt P21554); construct: expressed in transfected cells; host or cells: CHO cells; assay: Binding assay (in vitro), [3H]Win55212-2 displacement, membrane fractions of human CB1-CHO; details: hCB1 expressed in CHO cells, [3H]Win55212-2 2 nM, 30° C. 90 minutes; read-out: Ki value Central type receptor (C)
Sequence (P21554 whole entry): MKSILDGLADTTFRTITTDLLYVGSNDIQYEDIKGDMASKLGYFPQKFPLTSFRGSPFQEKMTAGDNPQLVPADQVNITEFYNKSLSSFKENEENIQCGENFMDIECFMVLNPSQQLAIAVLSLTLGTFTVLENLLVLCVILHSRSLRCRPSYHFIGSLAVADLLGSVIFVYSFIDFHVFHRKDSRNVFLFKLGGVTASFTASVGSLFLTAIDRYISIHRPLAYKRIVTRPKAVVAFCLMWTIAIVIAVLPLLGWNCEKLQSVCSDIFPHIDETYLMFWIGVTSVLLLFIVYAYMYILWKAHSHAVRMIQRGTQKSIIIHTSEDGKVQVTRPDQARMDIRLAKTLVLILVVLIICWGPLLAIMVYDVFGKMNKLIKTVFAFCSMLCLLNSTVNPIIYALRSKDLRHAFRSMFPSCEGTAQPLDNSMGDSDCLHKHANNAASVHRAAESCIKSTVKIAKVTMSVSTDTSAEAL
measured-parameter: Ki (nM)
Please give a number only; it is taken to be in nM.

{"columns": ["molecule-smiles", "measured-result"],
 "data": [
  ["CCCCCOc1c(OC)ccc2cc(C(=O)O)c(=O)[nH]c12", 4330],
  ["CCCCCOc1cc2cc(C(=O)NCCc3ccc(F)cc3)c(=O)[nH]c2cc1OC", 2400],
  ["CCCCCOc1c(OC)ccc2cc(C(=O)NCCc3ccc(O)c(OC)c3)c(=O)[nH]c12", 162]
]}

Could you now look at the following compound, please?
Bench note: what Ki did CCOc1c(OC)ccc2cc(C(=O)NCCc3ccc(F)cc3)c(=O)[nH]c12 show?
1750

* * *

target: human peripheral type cannabinoid receptor (hCB2) (Homo sapiens, UniProt P34972); construct: expressed in transfected cells; host or cells: CHO cells; test: Binding assay (in vitro), [3H]Win55212-2 displacement, membrane fractions of human CB2-CHO; conditions: indicator of selectivity for peripheral type receptors
Sequence (P34972 whole entry): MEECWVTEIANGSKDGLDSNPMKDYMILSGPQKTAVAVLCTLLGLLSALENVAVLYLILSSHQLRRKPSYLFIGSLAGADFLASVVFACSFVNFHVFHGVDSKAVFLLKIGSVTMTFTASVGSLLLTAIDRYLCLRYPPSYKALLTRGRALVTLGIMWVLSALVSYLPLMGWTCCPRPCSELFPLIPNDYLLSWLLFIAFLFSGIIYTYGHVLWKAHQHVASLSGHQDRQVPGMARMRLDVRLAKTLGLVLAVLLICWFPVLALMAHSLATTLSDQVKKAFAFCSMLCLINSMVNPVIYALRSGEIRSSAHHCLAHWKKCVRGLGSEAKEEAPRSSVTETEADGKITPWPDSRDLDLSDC
measured-parameter: C/S (Ki central type receptors / Ki peripheral type receptors)
Give the figure only, with no unit attached.

Known C/S (Ki central type receptors / Ki peripheral type receptors) results, listed for orientation:
{"columns": ["compound", "measured-target", "measured-result"],
 "data": [
  ["CCCCCOc1cc2cc(C(=O)OC)c(=O)n(C)c2cc1OC [Example 1-4]", "human peripheral type cannabinoid receptor (hCB2) (Homo sapiens, UniProt P34972)", 362],
  ["CCCCCOc1c(OC)ccc2cc(C(=O)O)c(=O)n(C)c12 [Example 2-6]", "human peripheral type cannabinoid receptor (hCB2) (Homo sapiens, UniProt P34972)", 5923],
  ["CCCCCOc1c(OC)ccc2cc(C(=O)NCc3ccc4c(c3)OCO4)c(=O)n(C)c12 [Example 3-42]", "human peripheral type cannabinoid receptor (hCB2) (Homo sapiens, UniProt P34972)", 1430]
]}

Okay, next one:
For the compound shown here, CCCCCOc1c(OC)ccc2cc(C(=O)NCCc3ccc(O)cc3)c(=O)[nH]c12 [Example 3-7] , give the reported C/S (Ki central type receptors / Ki peripheral type receptors).
150
